Sourced from patent US20070238765A1

The compounds listed here are annotated with their melting point.

| molecule | readout-kind | result-value |
| --- | --- | --- |
| Cn1nc2c(-c3ccc(Cl)cc3Cl)cccc2c1-n1ccnc1 | melting point | 63.2 to 89.4 °C |
| Cn1nnnc1Cc1c2cccc(-c3ccc(Cl)cc3Cl)c2nn1C | melting point | 183.9 to 185.4 °C |
| Cn1nc2c(-c3ccc(Cl)cc3Cl)cccc2c1CCC1=NCCN1 | melting point | 60.5 to 65.1 °C |

Prompt: Recorded melting point of "Cn1nc2c(-c3ccc(Cl)cc3Cl)cccc2c1C1=NCCN1" , please.
Completion: 212.8 to 214.5 °C

Prompt: Entry "CCOC(=O)Cc1ncn(Cc2c3cccc(-c4ccc(Cl)cc4Cl)c3nn2C)n1" : reported melting point = ?
Completion: 80.8 to 84 °C

Prompt: Item "Cc1noc(-c2c3cccc(-c4ccc(Cl)cc4Cl)c3nn2C)n1" has what recorded melting point?
Completion: 178 to 178.5 °C

Prompt: Quick check: melting point of "Cn1nc2c(-c3ccc(Cl)cc3Cl)cccc2c1CCc1nnn[nH]1" ?
Completion: 209.4 to 210.3 °C

Prompt: Request the reported melting point associated with "Cn1nc2c(-c3ccc(Cl)cc3Cl)cccc2c1-n1cnnc1"
Completion: 117.9 to 121.3 °C

Prompt: Could you share which melting point value was measured for "CCOC(=O)Cc1ncnn1Cc1c2cccc(-c3ccc(Cl)cc3Cl)c2nn1C" ?
Completion: 167.9 to 168.9 °C

Prompt: Please look up its melting point: "Cn1nc2c(-c3ccc(Cl)cc3Cl)cccc2c1-c1nnco1"
Completion: 199 to 201.2 °C
